- Species: Homo sapiens
- Experiment description: Selectivity index, ratio of inhibition of B-raf (unknown origin) to inhibition of partial length human MKK4 (S84 to D399 residues) expressed in mammalian expression system assessed as residual percent of control binding at 100 nM relative to control
# Selectivity ratio per record follows
Keep it simple and answer with nothing but the number.

Problem: Requested read-out: Selectivity ratio. Entry: `CCCS(=O)(=O)Nc1ccc(F)c(C(=O)c2n[nH]c3ncc(-c4ccc([N+](=O)[O-])cc4)cc23)c1F`
Result: 3

Problem: Requested read-out: Selectivity ratio. Entry: `CCCS(=O)(=O)Nc1ccc(F)c(C(=O)c2n[nH]c3ncc(-c4ccccc4N)cc23)c1F`
Result: 3

Problem: Requested read-out: Selectivity ratio. Entry: `CCCS(=O)(=O)Nc1ccc(F)c(C(=O)c2n[nH]c3ncc(-c4ccc(O)cc4)cc23)c1F`
Result: 10

Problem: Requested read-out: Selectivity ratio. Entry: `CCCS(=O)(=O)Nc1ccc(F)c(C(=O)c2n[nH]c3ncc(-c4ccccc4C)cc23)c1F`
Result: 3

Problem: Requested read-out: Selectivity ratio. Entry: `CCCS(=O)(=O)Nc1ccc(F)c(C(=O)c2n[nH]c3ncc(-c4ccc(C(C)C)cc4)cc23)c1F`
Result: 3

Problem: Requested read-out: Selectivity ratio. Entry: `CCCS(=O)(=O)Nc1ccc(F)c(C(=O)c2n[nH]c3ncc(-c4ccccc4Cl)cc23)c1F`
Result: 3

Problem: Requested read-out: Selectivity ratio. Entry: `CCCS(=O)(=O)Nc1ccc(F)c(C(=O)c2n[nH]c3ncc(-c4ccccc4)cc23)c1F`
Result: 10

Problem: Requested read-out: Selectivity ratio. Entry: `CCCCS(=O)(=O)Nc1cccc(C(=O)c2n[nH]c3ncc(-c4ccc5c(c4)OCCO5)cc23)c1F`
Result: 3

FYI, the data here is from ChEMBL document CHEMBL4742400.
